Value source: the OligoGym collection

Target: Mmp7 (rat); further: test concentration or dose not given here
Assay: reporter assay of Huesken 2005
Conditions: siRNA
Oligonucleotides are given in HELM: sugar(base)linkage, 5' to 3'; d 2'-deoxyribose, r ribose, m 2'-O-methylribose, p phosphate. ss, as = sense and antisense strand
measurement_kind: normalised inhibition (eCFP-eYFP dual reporter) (%)

- substance: "RNA1{r(A)p.r(C)p.r(C)p.r(G)p.r(G)p.r(G)p.r(G)p.r(C)p.r(C)p.r(A)p.r(G)p.r(G)p.r(C)p.r(C)p.r(U)p.r(C)p.r(G)p.r(G)p.r(C)p.d(T)p.d(T)}|RNA2{r(G)p.r(C)p.r(C)p.r(G)p.r(A)p.r(G)p.r(G)p.r(C)p.r(C)p.r(U)p.r(G)p.r(G)p.r(C)p.r(C)p.r(C)p.r(C)p.r(G)p.r(G)p.r(U)p.d(G)p.d(C)}$$$RNA1{StrandType:ss}|RNA2{StrandType:as}$"
  system_under_test: "Mmp7 (rat)"
  result_value: 11
- substance: "RNA1{r(U)p.r(U)p.r(C)p.r(C)p.r(U)p.r(G)p.r(U)p.r(U)p.r(U)p.r(G)p.r(U)p.r(U)p.r(G)p.r(C)p.r(C)p.r(A)p.r(C)p.r(U)p.r(C)p.d(T)p.d(T)}|RNA2{r(G)p.r(A)p.r(G)p.r(U)p.r(G)p.r(G)p.r(C)p.r(A)p.r(A)p.r(C)p.r(A)p.r(A)p.r(A)p.r(C)p.r(A)p.r(G)p.r(G)p.r(A)p.r(A)p.d(G)p.d(T)}$$$RNA1{StrandType:ss}|RNA2{StrandType:as}$"
  system_under_test: "Mmp7 (rat)"
  result_value: 37.6
- substance: "RNA1{r(A)p.r(A)p.r(C)p.r(U)p.r(U)p.r(C)p.r(C)p.r(C)p.r(A)p.r(U)p.r(U)p.r(U)p.r(G)p.r(A)p.r(U)p.r(G)p.r(G)p.r(G)p.r(C)p.d(T)p.d(T)}|RNA2{r(G)p.r(C)p.r(C)p.r(C)p.r(A)p.r(U)p.r(C)p.r(A)p.r(A)p.r(A)p.r(U)p.r(G)p.r(G)p.r(G)p.r(A)p.r(A)p.r(G)p.r(U)p.r(U)p.d(G)p.d(T)}$$$RNA1{StrandType:ss}|RNA2{StrandType:as}$"
  system_under_test: "Mmp7 (rat)"
  result_value: 0.2
